Tested on: AMPKalpha
method: Kinase selectivity assay (CEREP, HTRF)
Assay type: biochemical, human
The label label 1 is reserved for % Inhibition at 10 μM Concentration strictly under 50%; label 0 covers values equal to or above it.

1) O=C1Nc2ccccc2/C1=C\c1ccc2cn[nH]c2c1 | label 0
2) O=C1Nc2ccccc2/C1=C\c1ccc2[nH]nnc2c1 | label 1
3) O=C1Nc2ccccc2C1=Cc1ccc2c(/C=C/c3ccccn3)n[nH]c2c1 | label 0
4) COc1ccc2c(c1)C(=Cc1ccc3c(-c4ccc(N5CCN(C)CC5)nc4)n[nH]c3c1)C(=O)N2 | label 0
5) O=C1Nc2ccccc2/C1=C\c1ccc2c(/C=C/c3ccccc3Cl)n[nH]c2c1 | label 1

Kindly review the next compound as well.
input: Field: below-cutoff. Rule: recorded % Inhibition at 10 μM Concentration strictly less than 50%. Subject: CN(C)Cc1ccc(/C=C/c2n[nH]c3cc([C@H]4C[C@@]45C(=O)Nc4ccccc45)ccc23)cc1 (racemic)
output: label 0

---

system: Aurora A (Homo sapiens, UniProt O14965)
Sequence (O14965 1-403): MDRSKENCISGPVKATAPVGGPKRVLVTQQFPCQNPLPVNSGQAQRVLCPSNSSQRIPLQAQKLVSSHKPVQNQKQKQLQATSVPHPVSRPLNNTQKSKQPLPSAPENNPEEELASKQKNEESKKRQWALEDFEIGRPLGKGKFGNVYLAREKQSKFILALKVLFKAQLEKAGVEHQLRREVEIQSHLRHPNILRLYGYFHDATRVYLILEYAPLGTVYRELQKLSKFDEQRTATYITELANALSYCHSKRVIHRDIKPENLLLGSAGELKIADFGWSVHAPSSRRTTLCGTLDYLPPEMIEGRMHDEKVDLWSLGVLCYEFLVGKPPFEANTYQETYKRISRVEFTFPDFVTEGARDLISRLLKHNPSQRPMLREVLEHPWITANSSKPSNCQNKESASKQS
measure: IC50

input: Please indicate IC50 recorded for `COc1ccc2c(c1)/C(=C\c1ccc3c(/C=C/c4ccc(N5CCN(C)CC5)nc4)n[nH]c3c1)C(=O)N2`
output: < 5 µM

input: Recall and state the measured IC50 for `COc1ccc2c(c1)/C(=C\c1ccc3c(-c4ccc(N(C)C)nc4)n[nH]c3c1)C(=O)N2` .
output: < 5 µM
